// data source = ChEMBL document CHEMBL1152187

Examples of molecules with documented GI50 follow.
- Test system: DMS-273
- assay.method.text: Growth inhibition of human DMS273 cells by sulforhodamine B assay
- Format: functional

Solved cases below.
1. CCCCCCCCCCCC[C@@H](O)[C@H]1CC[C@H]([C@H](O)CCCCCCCCCC[C@H](F)CC2=C[C@H](C)OC2=O)O1; > 100 µM
2. CCCCCCCCCCCC[C@@H](O)[C@H]1CC[C@H]([C@H](O)CCCCCCCCCCCCC2=C[C@H](C)OC2=O)O1; > 100 µM
3. CCCCCCCCCCCC[C@@H](O)[C@H]1CC[C@H]([C@H](O)CCCCCCCCCC[C@@H](F)CC2=C[C@H](C)OC2=O)O1; > 100 µM

Let's switch to this molecule now.
GI50 in this record for "CCCCCCCCCCCC[C@@H](O)[C@H]1CC[C@H]([C@H](O)CCCCCCCCCC[C@@H](O)CC2=C[C@H](C)OC2=O)O1" : 72 µM
